Test system: OVCAR-8 ovarian
assay_notes: NCI tumour cell line growth inhibition, 48 h
Answer each item with its documented TGI.

compound: CC1=CC(=O)N(n2c(Cc3ccc(Cl)cc3)n[nH]c2=O)C1=O
measure_name: TGI
result: > 100 µM
//
compound: Cc1cn(Cc2cn(CC3OC(n4cc(C)c(=O)[nH]c4=O)CC3O)nn2)c(=O)[nH]c1=O (stereo not given)
measure_name: TGI
result: > 100 µM
//
compound: CC(C)(C)n1c(=O)n2n(c1=O)C1c3cccc4cccc(c34)C2C2c3cccc4cccc(c34)C1n1c(=O)n(C(C)(C)C)c(=O)n12
measure_name: TGI
result: > 100 µM
//
compound: Cc1ccccc1C(C(=O)NC1CCCCC1)N(C(=O)CNc1ccc(C#N)cc1)c1cccc(F)c1 (stereo not given)
measure_name: TGI
result: > 100 µM
//
compound: COc1ccc(Cn2cc3c(c2-c2cc(OC)c(OC)c(OC)c2)CCc2c(CO)noc2-3)cc1
measure_name: TGI
result: 19.6 µM

Report TGI for each item below.
1. Cc1ccsc1C(=S)Nc1ccc(Cl)c(/C=N/OC(C)C)c1
2. CC(C)Cn1cnc2c(Cl)nc3ccccc3c21

["> 100 µM", "> 100 µM"]

Please state, for each entry, its recorded TGI.
1. OCC1CCCC1O (stereo not given)
2. O=c1[nH]c(=O)n(CCOCP(=O)(O)O)nc1Br
3. Cc1ccsc1-c1ccc2c(c1)COC2(CCCN(C)C)c1ccc(F)cc1 (stereo not given)

1: > 100 µM; 2: > 100 µM; 3: 13.2 µM
